Biological target: Phospholipase D2 (Homo sapiens)
Test: PLD2 inhibitors in cells, cell-based, HEK293, single concentration (AID 602143);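 note: tested at 200 nM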
Conditions: HEK293 cellular PLD2 activity, percent of control; active compounds read low
value_type: remaining activity (%)
Give just the numeric value; % need not be written.

INPUT: Which value of remaining activity has been reported for C[C@@H](CN1CCC(n2nnc3cc(C(F)(F)F)ccc32)CC1)NC(=O)c1ccc2ccccc2c1 in the records?
OUTPUT: 107

INPUT: Next entry: O=C(NCCN1CCC(n2c(=O)[nH]c3ccccc32)CC1)Nc1cccc(OC(F)(F)F)c1
OUTPUT: 111

INPUT: Next entry: C[C@@H](CN1CCC(n2c(=O)[nH]c3ccccc32)CC1)NC(=O)COc1ccccc1
OUTPUT: 88.2

INPUT: Next entry: C[C@@H](CN1CCC(n2c(=O)[nH]c3cc(Br)ccc32)CC1)NC(=O)c1ccc(F)cc1
OUTPUT: 80.4

INPUT: Next entry: C[C@@H](CN1CCC(n2c(=O)[nH]c3cc(-c4ccc(C(F)(F)F)cc4)ccc32)CC1)NC(=O)[C@H]1C[C@@H]1c1ccccc1
OUTPUT: 70.9

INPUT: Next entry: O=C(NCCN1CCC(n2c(=O)[nH]c3ccccc32)CC1)c1ccccc1-c1ccccc1
OUTPUT: 83.4

INPUT: Next entry: O=C(N[C@@H](Cc1ccccc1)CN1CCC(n2c(=O)[nH]c3ccccc32)CC1)c1ccc(F)c(F)c1
OUTPUT: 124

INPUT: Next entry: CC(C)[C@@H](CN1CCC(n2c(=O)[nH]c3ccccc32)CC1)NC(=O)c1cc2cc(F)ccc2[nH]1
OUTPUT: 79.5

INPUT: Next entry: O=C(NCCN1CC=C(n2c(=O)[nH]c3ccccc32)CC1)C1CC1c1ccccc1 (stereo not drawn)
OUTPUT: 28.2

INPUT: Next entry: C[C@@H](CN1CCC2(CC1)CN(S(C)(=O)=O)c1ccccc12)NC(=O)c1ccc2ccccc2c1
OUTPUT: 115

INPUT: Next entry: C[C@@H](CN1CCC(n2c(=O)[nH]c3ccccc32)CC1)NC(=O)Cc1cccs1
OUTPUT: 99.6

INPUT: Next entry: Cc1ccc(C(=O)N[C@@H](C)CN2CCC(n3c(=O)[nH]c4cc(Br)ccc43)CC2)cc1
OUTPUT: 74

INPUT: Next entry: C[C@@H](CN1CCC2(CC1)CN(S(C)(=O)=O)c1ccccc12)NC(=O)[C@H]1C[C@@H]1c1ccccc1
OUTPUT: 109

###

Target: Phospholipase D2 (Homo sapiens) (UniProt O14939)
Sequence (O14939 whole entry, looked up): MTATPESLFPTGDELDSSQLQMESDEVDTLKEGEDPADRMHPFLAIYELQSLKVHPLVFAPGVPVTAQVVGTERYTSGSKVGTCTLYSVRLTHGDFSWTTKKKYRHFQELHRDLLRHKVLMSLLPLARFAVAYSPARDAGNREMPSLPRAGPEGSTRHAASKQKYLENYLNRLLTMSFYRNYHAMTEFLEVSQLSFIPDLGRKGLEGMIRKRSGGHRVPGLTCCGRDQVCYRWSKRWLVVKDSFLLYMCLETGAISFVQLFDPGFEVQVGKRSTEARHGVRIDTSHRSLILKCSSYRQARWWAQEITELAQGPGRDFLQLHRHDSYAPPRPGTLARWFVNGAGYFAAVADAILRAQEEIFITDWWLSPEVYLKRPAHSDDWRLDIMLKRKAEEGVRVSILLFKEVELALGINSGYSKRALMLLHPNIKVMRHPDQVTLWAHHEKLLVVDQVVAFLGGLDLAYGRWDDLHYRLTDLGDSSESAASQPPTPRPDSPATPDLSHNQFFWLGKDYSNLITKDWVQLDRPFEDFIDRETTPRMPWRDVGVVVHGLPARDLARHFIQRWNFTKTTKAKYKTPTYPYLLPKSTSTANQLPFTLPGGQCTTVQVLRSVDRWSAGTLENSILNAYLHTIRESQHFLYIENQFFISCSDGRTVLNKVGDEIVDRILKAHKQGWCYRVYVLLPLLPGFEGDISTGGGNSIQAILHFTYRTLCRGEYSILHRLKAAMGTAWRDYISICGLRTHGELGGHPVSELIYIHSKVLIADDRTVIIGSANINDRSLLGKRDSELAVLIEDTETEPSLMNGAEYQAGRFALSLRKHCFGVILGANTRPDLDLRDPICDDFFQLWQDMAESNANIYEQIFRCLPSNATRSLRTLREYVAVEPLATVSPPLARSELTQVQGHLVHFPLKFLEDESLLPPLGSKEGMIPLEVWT
Sequence (O14939 whole entry, looked up): as above
Assay: PLD2 inhibitors in cells, cell-based, HEK293, single concentration (AID 602143);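 note: tested at 200 nM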
Conditions: HEK293 cellular PLD2 activity, percent of control; active compounds read low
Exam item: assign MET to entries whose remaining activity is below 80% and NOT MET to entries at or above 80%. Note that a value of exactly 80% receives NOT MET.

INPUT: Is the reported remaining activity for Cn1c(C(=O)NCCN2CCN(c3ccncc3)CC2)cc2ccccc21 strictly below 80%?
OUTPUT: NOT MET

INPUT: Next entry: C[C@H](CN1CCC2(CC1)CNc1ccccc12)NC(=O)c1cnc2ccccc2c1
OUTPUT: NOT MET

INPUT: Next entry: Cc1ccc(S(=O)(=O)NCCN2CCC(n3c(=O)[nH]c4ccccc43)CC2)cc1
OUTPUT: MET

INPUT: Next entry: C[C@@H](CN1CCC(n2c(=O)[nH]c3ccccc32)CC1)NC(=O)c1cc2cc(F)ccc2[nH]1
OUTPUT: MET

INPUT: Next entry: O=C1c2ccccc2C(=O)N1CCCNc1ccc2ccccc2c1
OUTPUT: NOT MET

INPUT: Next entry: O=C(NCCN1CCC(n2c(=O)[nH]c3ccc(F)cc32)CC1)c1cccc2c1C(=O)c1ccccc1-2
OUTPUT: MET

INPUT: Next entry: Cc1ccccc1NC(=S)NCCN1CCC(n2c(=O)[nH]c3ccccc32)CC1
OUTPUT: NOT MET

INPUT: Next entry: CN1CCC2(CCN(CCNC(=O)c3ccc4ccccc4c3)CC2)C1=O
OUTPUT: NOT MET

INPUT: Next entry: Cn1c(C2CCN(CC3(N)CCCC3)CC2)nc2ccccc21 (tested in a mixture with another compound)
OUTPUT: NOT MET
